Biological target: cloned human μ opioid receptor (Homo sapiens, UniProt P35372)
Construct: the cDNA containing the open reading frame of the receptor was cloned downstream of the human cytomegalovirus promoter in the mammalian expression vector pcDNA3; expressed in transfected cells; host or cells: COS-7 (transient)
Sequence (P35372 whole entry): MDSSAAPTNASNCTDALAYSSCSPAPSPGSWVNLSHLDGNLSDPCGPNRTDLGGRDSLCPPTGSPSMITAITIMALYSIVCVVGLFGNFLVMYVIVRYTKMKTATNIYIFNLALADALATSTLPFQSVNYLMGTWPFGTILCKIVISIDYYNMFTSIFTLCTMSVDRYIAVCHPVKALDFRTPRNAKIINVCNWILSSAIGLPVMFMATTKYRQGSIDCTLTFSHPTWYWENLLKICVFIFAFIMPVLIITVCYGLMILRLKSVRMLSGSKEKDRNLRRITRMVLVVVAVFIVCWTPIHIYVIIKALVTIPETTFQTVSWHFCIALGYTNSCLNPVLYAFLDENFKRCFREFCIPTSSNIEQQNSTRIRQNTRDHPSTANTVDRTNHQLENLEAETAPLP
Details: read-out: Binding potencies (Ki-nM), human μ receptor, [3H]DAMGO
Ends that are not written are not given here.
endpoint: Ki

GGFMTSEKSQTPLVTLFKNAIIKNAYKKGE [des-Tyr^1-β-endorphin] has a reported Ki of > 1000 nM

* * *

Target: cloned human mu opioid receptor (human, UniProt P35372 1-400)
Construct: Full-length receptor expressed from pcDNA3 in COS-7 cells (membranes) or from mRNA in Xenopus oocytes; also called human µ opioid receptor; human µ receptor
Sequence (P35372 whole entry): as the sequence (P35372 whole entry) above
Test: inhibition of 2 nM [3H]DAMGO binding; membranes of COS-7 cells expressing the human µ receptor
endpoint: Ki

Kindly note the recorded Ki for CTOP, D-Phe-Cys-Tyr-D-Trp-Orn-Thr-Pen-Thr-NH2 (peptide) , which is 3.9 nM

* * *

Biological target: rat μ-opioid receptor MOR-1 (Rattus norvegicus, UniProt P33535, V245I)
Construct: A 1.4-kilobase HindIII fragment encompassing the open reading frame from the cDNA encoding MOR-1 was cloned; expressed in transfected cells; host or cells: COS-7
Sequence (P33535 whole entry V245I, the tested form may be a part): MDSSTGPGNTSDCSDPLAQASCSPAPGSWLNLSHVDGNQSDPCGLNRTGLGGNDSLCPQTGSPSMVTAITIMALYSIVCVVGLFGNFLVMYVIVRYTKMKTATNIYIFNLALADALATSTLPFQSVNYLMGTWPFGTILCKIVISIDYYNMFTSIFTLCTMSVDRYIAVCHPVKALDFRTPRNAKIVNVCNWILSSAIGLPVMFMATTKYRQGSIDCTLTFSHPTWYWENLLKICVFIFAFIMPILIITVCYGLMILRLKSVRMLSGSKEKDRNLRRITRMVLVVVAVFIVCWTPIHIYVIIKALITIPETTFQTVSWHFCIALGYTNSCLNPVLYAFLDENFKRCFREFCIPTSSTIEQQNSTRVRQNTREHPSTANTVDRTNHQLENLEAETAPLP
Test: biochemical
Type: binding
Conditions: read-out: Ki values
endpoint: Ki (nM)
Express it in nM; write the number only.

The value of Ki measured for the molecule COC(=O)/C=C/C(=O)N[C@@H]1CC[C@@]2(O)[C@H]3Cc4ccc(O)c5c4[C@@]2(CCN3CC2CC2)[C@H]1O5 [β-funaltrexamine] turned out to be 1.3
